System Name: 5-hydroxytryptamine receptor 7 (Homo sapiens, UniProt P34969)
Sequence (P34969 whole entry): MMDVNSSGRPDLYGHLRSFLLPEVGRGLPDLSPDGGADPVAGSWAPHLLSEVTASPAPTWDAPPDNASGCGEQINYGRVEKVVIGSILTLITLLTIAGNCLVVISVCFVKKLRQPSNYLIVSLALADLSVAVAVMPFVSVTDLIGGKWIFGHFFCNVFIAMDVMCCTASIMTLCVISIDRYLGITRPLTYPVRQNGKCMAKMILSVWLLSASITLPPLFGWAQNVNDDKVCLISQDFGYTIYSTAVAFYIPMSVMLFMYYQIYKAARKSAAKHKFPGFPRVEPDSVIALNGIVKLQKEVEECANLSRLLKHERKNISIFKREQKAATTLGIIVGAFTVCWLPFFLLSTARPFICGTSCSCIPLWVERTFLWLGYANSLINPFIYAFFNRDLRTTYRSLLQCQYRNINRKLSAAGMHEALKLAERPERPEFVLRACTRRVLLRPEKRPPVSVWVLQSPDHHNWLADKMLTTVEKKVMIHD
Assay Details: Binding affinity to human recombinant 5-hydroxytryptamine 7 receptor in mammalian cells using [3H]5-CT as radioligand
pKi: −log10 of the molar value.
# if value of pKi reaches 8, tag yes; if it stays below, tag no

Answered cases to consult:
>  <Compound>
COc1ccc2c3c1CCCC3(CCCCN1CC=C(c3ccccc3)CC1)C(=O)N2 (stereo not given)

>  <System Name>
5-hydroxytryptamine receptor 7 (Homo sapiens, UniProt P34969)

>  <Label>
no

$$$$
>  <Compound>
COc1ccc2[nH]c3c(c2c1)CCN(CCCCC12CCCc4cccc(c41)NC2=O)C3 (stereo not given)

>  <System Name>
5-hydroxytryptamine receptor 7 (Homo sapiens, UniProt P34969)

>  <Label>
no

$$$$
>  <Compound>
COc1ccc(N2CCN(CCCCC34CCCc5cccc(c53)NC4=O)CC2)cc1 (stereo not given)

>  <System Name>
5-hydroxytryptamine receptor 7 (Homo sapiens, UniProt P34969)

>  <Label>
no

$$$$
>  <Compound>
Cc1cccc(C)c1N1CCN(CCCCC23CCCc4cccc(c42)NC3=O)CC1 (stereo not given)

>  <System Name>
5-hydroxytryptamine receptor 7 (Homo sapiens, UniProt P34969)

>  <Label>
no

$$$$
>  <Compound>
NC(=O)c1ccc2c3c1CCCC3(CCCCN1CC=C(c3ccccc3)CC1)C(=O)N2 (stereo not given)

>  <System Name>
5-hydroxytryptamine receptor 7 (Homo sapiens, UniProt P34969)

>  <Label>
no

$$$$
>  <Compound>
NC(=O)c1ccccc1N1CCN(CCCCC23CCCc4cccc(c42)NC3=O)CC1 (stereo not given)

>  <System Name>
5-hydroxytryptamine receptor 7 (Homo sapiens, UniProt P34969)

>  <Label>
no

$$$$
>  <Compound>
Cc1ccc(C2=CCN(CCCCC34CCCc5cccc(c53)NC4=O)CC2)cc1 (stereo not given)

>  <System Name>
5-hydroxytryptamine receptor 7 (Homo sapiens, UniProt P34969)

>  <Label>
yes

$$$$
>  <Compound>
O=C1Nc2cccc3c2C1(CCCCN1CC=C(c2ccc(F)cc2)CC1)CCC3 (stereo not given)

>  <System Name>
5-hydroxytryptamine receptor 7 (Homo sapiens, UniProt P34969)

>  <Label>
yes

$$$$
>  <Compound>
CN(C)C(=O)Cn1c2c(c3ccccc31)CCN(CCCCC13CCCc4cccc(c41)NC3=O)C2 (stereo not given)

>  <System Name>
5-hydroxytryptamine receptor 7 (Homo sapiens, UniProt P34969)

>  <Label>
no

$$$$
>  <Compound>
COc1cccc(N2CCN(CCCCC34CCCc5cccc(c53)NC4=O)CC2)c1 (stereo not given)

>  <System Name>
5-hydroxytryptamine receptor 7 (Homo sapiens, UniProt P34969)

>  <Label>
yes

$$$$

Exam item: Can CC(=O)c1ccc2c3c1CCCC3(CCCCN1CC=C(c3ccccc3)CC1)C(=O)N2 (stereo not given) be said to have pKi at or above 8?
Marked response: no

Exam item: Can O=C1Nc2cccc3c2C1(CCCCN1CCN(c2ncccn2)CC1)CCC3 (stereo not given) be said to have pKi at or above 8?
Marked response: no

Exam item: Can CN1C(=O)C2(CCCCN3CC=C(c4ccccc4)CC3)CCCc3cccc1c32 (stereo not given) be said to have pKi at or above 8?
Marked response: no

Exam item: Can O=C1Nc2cccc3c2C1(CCCCN1CCC(c2ccccc2)CC1)CCC3 (stereo not given) be said to have pKi at or above 8?
Marked response: yes

---

System Name: Serotonin 2 (5-HT2) receptor (Rattus norvegicus, UniProt P30994+P08909+P14842)
Assay Details: In vitro binding affinity to 5-hydroxytryptamine 2 receptor of rat cerebral cortex membranes using [3H]ketanserin as the radioligand
Format: tissue-based, Membrane
Lab note: compare Log Ki with -7, writing 1 (yes) if less and 0 (no) if equal or more.

Answered cases to consult:
>  <Compound>
NC(=O)C1(c2ccccc2)CCN(CCCCC23CCCc4cccc(c42)NC3=O)CC1 (stereo not given)

>  <Label>
1 (yes)

$$$$
>  <Compound>
NC(=O)Cn1c2c(c3ccccc31)CCN(CCCCC13CCCc4cccc(c41)NC3=O)C2 (stereo not given)

>  <Label>
0 (no)

$$$$
>  <Compound>
CC(=O)n1c2c(c3ccccc31)CCN(CCCCC13CCCc4cccc(c41)NC3=O)C2 (stereo not given)

>  <Label>
0 (no)

$$$$
>  <Compound>
O=C1Nc2ccc(Br)c3c2C1(CCCCN1CC=C(c2ccccc2)CC1)CCC3 (stereo not given)

>  <Label>
0 (no)

$$$$
>  <Compound>
O=C1Nc2cccc3c2C1(CCCCN1CCN(c2ccccc2[N+](=O)[O-])CC1)CCC3 (stereo not given)

>  <Label>
1 (yes)

$$$$
>  <Compound>
O=C1Nc2cccc3c2C1(CCCCN1CCN(c2ccccc2C(F)(F)F)CC1)CCC3 (stereo not given)

>  <Label>
0 (no)

$$$$
>  <Compound>
Cc1cccc(C)c1N1CCN(CCCCC23CCCc4cccc(c42)NC3=O)CC1 (stereo not given)

>  <Label>
0 (no)

$$$$
>  <Compound>
NC(=O)c1ccccc1N1CCN(CCCCC23CCCc4cccc(c42)NC3=O)CC1 (stereo not given)

>  <Label>
0 (no)

$$$$
>  <Compound>
COc1ccc2c3c1CCCC3(CCCCN1CC=C(c3ccccc3)CC1)C(=O)N2 (stereo not given)

>  <Label>
1 (yes)

$$$$
>  <Compound>
O=C1Nc2cccc3c2C1(CCCCN1CCC(O)(c2ccccc2)CC1)CCC3 (stereo not given)

>  <Label>
0 (no)

$$$$

We next turn to a different compound, shown below.
Exam item: Input O=C1Nc2cccc3c2C1(CCCCN1CCc2c([nH]c4ccccc24)C1)CCC3 (stereo not given) ; condition: Log Ki strictly below -7. Does it hold?
Marked response: 0 (no)

---

System Name: Serotonin 2 (5-HT2) receptor (Rattus norvegicus, UniProt P30994+P08909+P14842)
Assay Details: In vitro binding affinity to 5-hydroxytryptamine 2 receptor of rat cerebral cortex membranes using [3H]ketanserin as the radioligand
Type: tissue-based, Membrane
Property Name: Log Ki

>  <Compound>
COc1cccc(N2CCN(CCCCC34CCCc5cccc(c53)NC4=O)CC2)c1 (stereo not given)

>  <Log Ki>
-7.19

$$$$
>  <Compound>
CN(C)C(=O)n1c2c(c3ccccc31)CCN(CCCCC13CCCc4cccc(c41)NC3=O)C2 (stereo not given)

>  <Log Ki>
-6.12

$$$$
>  <Compound>
CC(=O)c1ccc2c3c1CCCC3(CCCCN1CC=C(c3ccccc3)CC1)C(=O)N2 (stereo not given)

>  <Log Ki>
-7.12

$$$$
>  <Compound>
NC(=O)c1ccc2c3c1CCCC3(CCCCN1CC=C(c3ccccc3)CC1)C(=O)N2 (stereo not given)

>  <Log Ki>
-6.8

$$$$

API: the following record is the query input.
Exam item: Suppose we examine the compound CC(=O)c1ccccc1N1CCN(CCCCC23CCCc4cccc(c42)NC3=O)CC1 (stereo not given) ; what Log Ki value has been reported?
Marked response: -6.45

---

Reported Ki values for the following compounds.
System Name: 5-hydroxytryptamine receptor 7 (Homo sapiens, UniProt P34969)
Assay Details: Binding affinity to human recombinant 5-hydroxytryptamine 7 receptor in mammalian cells using [3H]5-CT as radioligand
Give a bare numeral; the unit nM is implied.

>  <Compound>
COCn1c2c(c3ccccc31)CCN(CCCCC13CCCc4cccc(c41)NC3=O)C2 (stereo not drawn)

>  <System Name>
5-hydroxytryptamine receptor 7 (Homo sapiens, UniProt P34969)

>  <Ki (nM)>
17

$$$$
>  <Compound>
CC(=O)c1ccccc1N1CCN(CCCCC23CCCc4cccc(c42)NC3=O)CC1 (stereo not drawn)

>  <System Name>
5-hydroxytryptamine receptor 7 (Homo sapiens, UniProt P34969)

>  <Ki (nM)>
7.94

$$$$

API: the following record is the query input.
Exam item: Suppose we examine the compound NC(=O)C1(c2ccccc2)CCN(CCCCC23CCCc4cccc(c42)NC3=O)CC1 (stereo not drawn) ; what Ki value has been reported?
Marked response: 224

---

Reported pKi values for the following molecules.
System Name: 5-hydroxytryptamine receptor 7 (Homo sapiens, UniProt P34969)
Assay Details: Binding affinity to human recombinant 5-hydroxytryptamine 7 receptor in mammalian cells using [3H]5-CT as radioligand
By convention, pKi is the negative base-10 log of a molar concentration.

For orientation, consider the following solved cases.
>  <Molecule>
CC(=O)C1(c2ccccc2)CCN(CCCCC23CCCc4cccc(c42)NC3=O)CC1 (stereo not given)

>  <pKi>
7.14

$$$$
>  <Molecule>
CNC(=O)Cn1c2c(c3ccccc31)CCN(CCCCC13CCCc4cccc(c41)NC3=O)C2 (stereo not given)

>  <pKi>
8.45

$$$$
>  <Molecule>
O=C1Nc2cccc3c2C1(CCCCN1CCN(c2ccccc2C(F)(F)F)CC1)CCC3 (stereo not given)

>  <pKi>
7.13

$$$$
>  <Molecule>
Cn1c2c(c3ccccc31)CCN(CCCCC13CCCc4cccc(c41)NC3=O)C2 (stereo not given)

>  <pKi>
7.72

$$$$

Exam item: Return pKi measured with 5-hydroxytryptamine receptor 7 (Homo sapiens, UniProt P34969) given this molecule: COC1(c2ccccc2)CCN(CCCCC23CCCc4cccc(c42)NC3=O)CC1 (stereo not given)
Marked response: 7.66

Exam item: Return pKi measured with 5-hydroxytryptamine receptor 7 (Homo sapiens, UniProt P34969) given this molecule: O=C1Nc2ccc(Br)c3c2C1(CCCCN1CC=C(c2ccccc2)CC1)CCC3 (stereo not given)
Marked response: 7.91

Exam item: Return pKi measured with 5-hydroxytryptamine receptor 7 (Homo sapiens, UniProt P34969) given this molecule: O=C1Nc2cccc3c2C1(CCCCN1CCC(O)(c2ccccc2)CC1)CCC3 (stereo not given)
Marked response: 7.36

Taken from ChEMBL document CHEMBL1136048.
